# key: entry, value: solubility
# protocol: Determination of solubility at 25° C.
# Format: physicochemical
# measurement context: methanol, 25 °C, organic solvent or mixture, thermodynamic from solid; read-out: Solubility (approx. at 25° C.)
# Method: Excess solids were equilibrated in each solvent for over 24 hours at 25° C.±0.1. Concentration in aqueous supernatant was measured by UV and HPLC and concentrations in organic solvents by gravimetry.

Example results:
In [3]: df
Out[3]:
                                   molecule     reading
0  Cn1c(Nc2ccc(C(F)(F)F)cc2)nc2cc(Oc3ccnc(-c4ncc(C(F)(F)F)[nH]4)c3)ccc21.O=C(O)/C=C\C(=O)O [Maleate]  > 50 mg/mL
1  CCS(=O)(=O)O.Cn1c(Nc2ccc(C(F)(F)F)cc2)nc2cc(Oc3ccnc(-c4ncc(C(F)(F)F)[nH]4)c3)ccc21 [Esylate]  > 50 mg/mL
2  Cn1c(Nc2ccc(C(F)(F)F)cc2)nc2cc(Oc3ccnc(-c4ncc(C(F)(F)F)[nH]4)c3)ccc21  11.4 mg/mL

Next:
For the molecule CS(=O)(=O)O.Cn1c(Nc2ccc(C(F)(F)F)cc2)nc2cc(Oc3ccnc(-c4ncc(C(F)(F)F)[nH]4)c3)ccc21 [Mesylate] , what solubility is on record?
> 50 mg/mL
